All values here come from paper PMC9050923.

- System: SKBR-3
- Test: MTT assay, SKBR-3 breast cancer cells
- Format: cell-based
- Experimental context: Homo sapiens, SK-BR-3; 10 μM, 72 h after the treatment, MTT, mean of three independent experiments; read-out: Percentage of cell viability SKBR-3
Value type: viability at 10 µM (%)

>>> value("Cc1ccc(Nc2nc(N)nc(-c3cccc(F)c3)n2)cc1 [Compound 17]")
90
>>> value("COc1ccc(Nc2nc(N)nc(-c3ccc(C)cc3)n2)cc1 [Compound 66]")
89
>>> value("Nc1nc(Nc2ccc(Cl)cc2)nc(-c2cccs2)n1 [Compound 119]")
89
>>> value("COc1ccc(Nc2nc(N)nc(-c3ccc(Br)cc3)n2)cc1 [Compound 52]")
91
>>> value("Nc1nc(Nc2cccnc2)nc(-c2ccc(OC(F)(F)F)cc2)n1 [Compound 99]")
81
